# TESTED_ON: membrane LIGHT without residues 81-84 (EL4-NC-LIGHT cells) (human, UniProt O43557 1-240)
# Sequence (O43557 other isoform, or with tags, fused parts or gaps): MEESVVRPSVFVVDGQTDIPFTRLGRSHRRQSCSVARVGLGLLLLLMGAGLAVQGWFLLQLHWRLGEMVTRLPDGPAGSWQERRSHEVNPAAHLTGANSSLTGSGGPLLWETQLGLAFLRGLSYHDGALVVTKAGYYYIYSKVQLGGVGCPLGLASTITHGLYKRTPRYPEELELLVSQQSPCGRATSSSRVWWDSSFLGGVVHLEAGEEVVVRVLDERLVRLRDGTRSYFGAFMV
# PROCEDURE_DETAILS: cell-based or functional assay
MEASURED_PARAMETER: IC50, nM membrane LIGHT (IL-8 release from HT-29 cells) (nM)

BINDER	OBSERVED
3D12 (antibody, human IgG4, V domains shown, chimeric: mouse variable domains on human IgG4 HC (S-to-P and L-to-E at 248) and human CL; also called Parental 3D12; 3D12 chimeric) VH: QVQLQQPGAELVRPGASVTLSCKASDYTFTDSEIHWVKQTPVHGLEWIGEIDPETGGTAYNQKFKGKATLTADKSSSTAYMELRSLTSEDSAVYYCSRETDYFFDYWGQGTTLTVSS VL: DIQMTQSPASLSASVGETVTITCGASENIYGALNWYQRKQGKSPQLLIYGATNLADGMSSRFSGSGSGRQYSLKISSLHPDDVATYYCQNVLSTPWTFGGGTKLEIKR	0.1
3B04 (antibody, human IgG4, V domains shown, chimeric: mouse variable domains on human IgG4 HC (S-to-P and L-to-E at 248) and human CL; also called Parental 3B04; 3B04 chimeric) VH: QVQLQQPGAELVRPGASVTLSCKASGYTFTDYEMHWVKQTPVHGLEWIGEIDPETGDTAYSQKFKGKATLTADKSSSTAYMEFRSLTSEDSAVYYCSRETDYFFDYWGQGTTLTVSS VL: DIQMTQTPASLSASVGETVTITCGASENIYGALNWYQRKQGKSPQLLIYGATNLADGMSSRFSGSGSGRQYSLKISSLHPDDFATYYCQNVLTTPWTFGGGTKLEIKR	0.15
2E08 (antibody, human IgG4, V domains shown, chimeric human IgG4 (S-to-P, L-to-E at 248), human CL; also called Parental 2E08) VH: QVQMKESGAELVRPGVSVKISCKGSGYTFTDYAIHWVKQSHAKTLEWIGVISTYYGDASYNQKFKGKATMTVDKSSSTAYMELARLTSDDSAIYYCARSRGEYGNYDAMDYWGQGTSVTVSS VL: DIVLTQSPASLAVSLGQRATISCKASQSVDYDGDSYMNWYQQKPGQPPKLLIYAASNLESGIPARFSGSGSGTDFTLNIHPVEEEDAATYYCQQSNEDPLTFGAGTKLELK	1.8
